Test system: A2780cisR (platinum-resistant A2780 cells)
Assay method text: Cytotoxicity, MTT assay
Type: cell-based, human
Reported conditions: A2780cisR; 8 h treatment; in the dark; MTT at 40 h
Property: IC50 (µM)
Unit µM implied. Number only.

-- ask Given the compound O=C1[O][Pt]2([NH][C@@H]3CCCC[C@H]3[NH]2)[O]C1=O , what is its reported IC50?
-- reply 162
